differential viability (reversal) values, listed per item
- test-summary: MRP1 drug-resistance reversers in H69AR cells – cell-based, doxorubicin co-treatment, pilot screen (AID 601)
- assay-context: H69AR cells + 2 uM doxorubicin, CellTiter-Glo, 72 h; at 10 µM; hits give high values

molecule: CCOc1ccc(Cn2nnc(C(=O)NCc3ccc(OC)cc3)c2N)cc1
uom: %
differential viability (reversal): -2.11
//
molecule: O=C(CSc1ccc2nnc(-c3ccccc3)n2n1)N1CCN(c2ccccc2)CC1
uom: %
differential viability (reversal): -9.57
//
molecule: CCOC(=O)c1ccc2ncc(C(=O)OCC)c(NCCN(C)C)c2c1
uom: %
differential viability (reversal): 10.6
//
molecule: CCCCN(CC)CCCNC(=O)c1cc2c(=O)n(C)c3ccccc3c2n1C
uom: %
differential viability (reversal): -0.115
//
molecule: COc1ccc(C2CC(=O)C(C=NCCCN3CCOCC3)=C(O)C2)cc1 (configuration not stated)
uom: %
differential viability (reversal): 12.8
//
molecule: Cc1ccc(NC(=O)CN(c2ccc3c(c2)OCO3)S(=O)(=O)c2c(C)n[nH]c2C)cc1
uom: %
differential viability (reversal): 1.52
//
molecule: O=C(Nc1cccc2ccccc12)c1ccc(Br)o1
uom: %
differential viability (reversal): -1.12
//
molecule: O=C(C(Cc1ccccc1)n1cccc1)N1CCCCCC1 (configuration not stated)
uom: %
differential viability (reversal): 11.2
//
molecule: CCn1cc(C2=NOC(C(=O)Nc3c(C)nn(Cc4ccc(F)cc4)c3C)C2)c(C)n1 (configuration not stated)
uom: %
differential viability (reversal): 1.12
//
molecule: Cc1ccc(-c2cc(C(=O)Nc3cc(C)on3)c3ccccc3n2)c(C)c1
uom: %
differential viability (reversal): -5.17
//
molecule: Cc1ccc2cccc(SCC(=O)N3CCOCC3)c2n1
uom: %
differential viability (reversal): -0.48
//
molecule: COc1ccc(S(=O)(=O)N2CCC(C(=O)Nc3c(F)cccc3F)CC2)cc1
uom: %
differential viability (reversal): 0.885
//
molecule: COc1ccc(CCNC(=O)c2cnn3ccccc23)c(OC)c1OC
uom: %
differential viability (reversal): -0.525
//
molecule: Oc1ccc2ccccc2c1CN1CCN(c2ccccc2F)CC1
uom: %
differential viability (reversal): 3.1
//
molecule: COc1ccc2c(c1)CCc1cc(C(=O)N3CCN(c4ccc(N5CCOCC5)nn4)CC3)sc1-2
uom: %
differential viability (reversal): -11.4
//
molecule: O=C(Nc1cccc(F)c1)C1C2C=CC3(CN(CCCN4CCOCC4)C(=O)C13)O2 (configuration not stated)
uom: %
differential viability (reversal): 20.3
//
molecule: COc1ccc(NC(=O)C2CCCN2S(=O)(=O)c2cccc3cccnc23)c(OC)c1 (configuration not stated)
uom: %
differential viability (reversal): -0.87
//
molecule: COc1ccc(NC(=O)NCCN2C(=O)C3C4C=CC(C4)C3C2=O)cc1 (configuration not stated)
uom: %
differential viability (reversal): 3.28
//
molecule: CN1CCN(Cc2nc3c(c(=O)[nH]c(=O)n3C)n2CCc2ccccc2)CC1
uom: %
differential viability (reversal): -4.29
//
molecule: CCCCSc1nc2c(cnn2-c2ccc(F)cc2)c(=O)[nH]1
uom: %
differential viability (reversal): -10.8
//
molecule: O=C1CC(c2ccco2)CC(O)=C1C=NCCN1CCNCC1 (configuration not stated)
uom: %
differential viability (reversal): 3.35
//
molecule: Cc1ccc(-c2cc(C(F)F)n3ncc(C(=O)N4CCN(c5ccccn5)CC4)c3n2)cc1
uom: %
differential viability (reversal): 3.75
//
molecule: Cc1cc(C)c(C#N)c(SCC(=O)Nc2ccc(S(=O)(=O)Nc3onc(C)c3C)cc2)n1
uom: %
differential viability (reversal): -9.41
//
molecule: COc1cccc(N2CCN(c3c4c(nc5ncnn35)CCC4)CC2)c1
uom: %
differential viability (reversal): 10.4
//
molecule: N#CC(C(=O)Nc1ccccc1)=C1CCCCC1
uom: %
differential viability (reversal): 14.8
//
molecule: O=C(O)CC(NC(=O)c1ccccc1NC(=O)c1ccccc1)C(=O)O (configuration not stated)
uom: %
differential viability (reversal): 6.64
//
molecule: COC(=O)CSc1nc2nc(C)cc(C)n2n1
uom: %
differential viability (reversal): 5.46
//
molecule: CCOCCCNC(=O)C(c1ccccc1)N(Cc1ccc2c(c1)OCO2)C(=O)CNC(C)=O (configuration not stated)
uom: %
differential viability (reversal): 2.97
//
molecule: CCOC(=O)/C(C#N)=C(/C)c1ccc(OC)cc1
uom: %
differential viability (reversal): 5.39
//
molecule: CN(C)c1oc(-c2ccccc2F)nc1C#N
uom: %
differential viability (reversal): 11.8
//
molecule: Cc1c(NC(=O)c2ccc(CN3CCc4ccccc4C3)cc2)c(=O)n(-c2ccccc2)n1C
uom: %
differential viability (reversal): 4.51
//
molecule: Cc1cc(C)cc(NC(=O)CSc2nnc(Cc3cccn3C)n2-c2ccc(F)cc2)c1
uom: %
differential viability (reversal): 14
//
molecule: Cc1cc(C)c2c(=O)n(CC(=O)N3CCC(Cc4ccccc4)CC3)sc2n1
uom: %
differential viability (reversal): -6.3
//
molecule: COc1ccc(N2CCN(CCNC(=O)CCS(=O)(=O)c3cccc4nsnc34)CC2)cc1
uom: %
differential viability (reversal): 11.1
//
molecule: CC1CCc2nn(CC(=O)NCCN3CCCCC3C)cc2C1 (configuration not stated)
uom: %
differential viability (reversal): -2.58
//
molecule: COc1ccccc1NC1=C(C)C(=O)CC1
uom: %
differential viability (reversal): 14.5
//
molecule: Cn1nnc2cc(C(=O)N3CCCCCC3)ccc21
uom: %
differential viability (reversal): 10.6

Cited source for all entries: PubChem BioAssay
